Let's look at some compounds and their measured Ki.
ASSAY SYSTEM: σ1 receptors (Cavia porcellus, UniProt Q60492)
Construct: from tissue; host or cells: guinea pig brain homogenate (per the earlier reading's assay description)
Sequence (Q60492 whole entry): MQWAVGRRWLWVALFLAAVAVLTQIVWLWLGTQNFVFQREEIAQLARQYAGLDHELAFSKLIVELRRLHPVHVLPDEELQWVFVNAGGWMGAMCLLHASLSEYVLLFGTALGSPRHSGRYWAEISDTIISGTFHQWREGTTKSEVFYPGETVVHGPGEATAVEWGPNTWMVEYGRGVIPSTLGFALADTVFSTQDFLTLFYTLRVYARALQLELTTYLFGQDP
ASSAY NAME: In vitro binding to σ1 receptors: inhibition of [3H](+)-pentazocine binding to guinea pig brain homogenates
MEASUREMENT PARAMETERS: Table II; footnote a not given; read-out: σ1 (binding to σ1 receptors)

COc1ccc(C)cc1NC(=O)OC1CC2CCCC(C1)N2CCc1ccc(I)cc1 (stereo not drawn) [Compound 7a] ... 175 nM
COc1ccc(C)cc1NC(=O)OC1CC2CCCC(C1)N2CCc1ccc(NC(=O)OC(C)(C)C)cc1 (stereo not drawn) [Compound 7b] ... > 1000 nM

// moving on: another record for Ki
INPUT: For σ1 receptors (Cavia porcellus, UniProt Q60492), give Ki of the listed compound: COc1ccc(C)cc1NC(=O)OC1CC2CCCC(C1)N2CCc1ccc(N)cc1 (stereo not drawn) [Compound 7c]
OUTPUT: > 1000 nM
